System: Eimeria tenella
PROCEDURE SUMMARY: In vitro antiprotozoal activity using […] bovine kidney host cells infected with Eimeria tenella
Assay type: functional
Kindly supply the reported MIC values for the records listed here.

Field: MIC (Eimeria tenella). Entry: CCC(=O)CCCCC[C@@H]1NC(=O)[C@H]2CCCCN2C(=O)[C@H]([C@@H](C)CC)NC(=O)[C@H](Cc2cn(CCN)c3ccccc23)NC1=O > 1 µg/mL

Hello, I am looking for reported MIC with Eimeria tenella for CCC(=O)CCCCC[C@@H]1NC(=O)[C@H]2CCCCN2C(=O)[C@H]([C@@H](C)CC)NC(=O)[C@H](Cc2cn(CC(=O)O)c3ccccc23)NC1=O . Could you help? > 1 µg/mL

Write down the reported MIC of CCCCCCCCCCC(=O)C[C@@H]1NC(=O)[C@H](CCCCCC(=O)CC)NC(=O)[C@H]2CCCCN2C(=O)[C@H]([C@@H](C)CC)NC1=O , test system: Eimeria tenella. > 1 µg/mL

Hey, just so you know, these numbers are from ChEMBL document CHEMBL1133988.
